- studyTarget: Carbonic anhydrase 1 (Homo sapiens, UniProt P00915)
- Sequence (P00915 whole entry): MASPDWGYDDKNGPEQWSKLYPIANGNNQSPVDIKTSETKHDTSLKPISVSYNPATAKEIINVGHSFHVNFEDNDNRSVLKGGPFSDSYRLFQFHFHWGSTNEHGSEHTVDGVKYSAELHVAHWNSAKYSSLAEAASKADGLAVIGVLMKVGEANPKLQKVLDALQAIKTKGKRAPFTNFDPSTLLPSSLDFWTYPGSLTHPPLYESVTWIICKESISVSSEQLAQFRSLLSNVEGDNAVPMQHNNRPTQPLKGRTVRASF
- assayRemarks: Inhibition of recombinant human CA1 expressed in Escherichia coli BL21 preincubated for 15 mins by phenol red dye-based stopped-flow CO2 hydration assay
Recorded pKi, one value per entry.
// returns pKi (minus log10 of molar concentration), number only

Completed entries (count: 3):
{"compound": "NS(=O)(=O)c1nnc(NC(=O)C2CCCCC2)s1", "pKi": 7.20}
{"compound": "CC(C)(C)C(=O)Nc1nnc(S(N)(=O)=O)s1", "pKi": 7.20}
{"compound": "CCCC(=O)Nc1nnc(S(N)(=O)=O)s1", "pKi": 7.27}

Lookup: Determine from records and report pKi for `CC(C)C(=O)Nc1nnc(S(N)(=O)=O)s1`
Found: 7.12
